Molecular target: T1, mouse CD33 extracellular domain with 6xHis-tag (mouse, UniProt Q63994 18-240)
T1 construct: range 18-240; also called moCD33-His; moCD33(ECD)-His
T1 sequence: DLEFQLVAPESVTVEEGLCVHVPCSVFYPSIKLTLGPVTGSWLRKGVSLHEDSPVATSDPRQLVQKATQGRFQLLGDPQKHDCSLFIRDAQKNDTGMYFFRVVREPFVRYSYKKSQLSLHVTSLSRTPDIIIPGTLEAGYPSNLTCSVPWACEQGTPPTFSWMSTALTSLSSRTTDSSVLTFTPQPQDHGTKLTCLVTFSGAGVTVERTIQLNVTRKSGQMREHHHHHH
Test: ELISA on recombinant moCD33-His, purified hybridoma subclone antibody, readout RLU; antibody concentration not given
MEASURED_ATTRIBUTE: binding result

BINDER | RESULT
1-A20 (antibody, V domains shown, AlivaMab mouse hybridoma antibody; also called 1-A20-A) VH: QVQLQESGPGLVKPSETLSLTCTVSGDSISSYYWSWIRQPAGKGLEWIGRIYTSGNTNYNPSLKSRVTMSVDKSKNQFSLKLRSVTAADTAVYYCARDGDNRDSDAFDIWGQGTMVTVSS VL: SPGTLSLSPGERATLSCRASQNISSSYLAWCQQKPGQAPRLFIYGTSRRATGIPDRFSGSGSGTDFTLTISRLEPEDFAVYYCQQYGSSPLTFGGGTKVEIK | no binding
4-B2 (hybridoma antibody) (antibody, V domains shown, AlivaMab mouse hybridoma antibody; also called 4-B2-A) VH: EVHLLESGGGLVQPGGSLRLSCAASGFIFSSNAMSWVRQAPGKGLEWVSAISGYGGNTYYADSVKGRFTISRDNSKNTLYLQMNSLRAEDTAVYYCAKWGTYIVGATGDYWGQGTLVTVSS VL: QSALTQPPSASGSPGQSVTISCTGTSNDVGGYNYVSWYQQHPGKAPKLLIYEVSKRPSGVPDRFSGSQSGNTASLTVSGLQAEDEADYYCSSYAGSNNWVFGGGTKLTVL | no binding
1-H19 (antibody, V domains shown, AlivaMab mouse hybridoma antibody; also called 1-H19-A) VH: QVQLQESGPGLVKPSETLSLTCTVSGGSISTYYWSWIRQPAGKGLEWIGRIYTSGNTNYNPSLKSRVTMSVDTSKNQLSLKLRSVTAADTAVYYCARDGDNRNSDAFDIWGQGTMVTVSS VL: QSVLTQPPSVSGAPGQRVTISCTGSSSNIGAGYDVHWYQQLPGTAPKLLIYGNSNRPSGVPDRFSGSKSGTSASLAITGLQAEDEADYYCQSYDRSLSGWVFGGGTKLTVL | no binding

Value source: patent US20240262910A1
